The measurements presented in this section are drawn from patent US11312722B2.

# target: Hsp90 (C. albicans whole cell lysate) (Candida albicans (strain SC5314 / ATCC MYA-2876) (Yeast), UniProt P46598)
# assay_summary: biochemical
# Type: binding
# condition_details: Yes/No call
measured_metric: C. alb Active (biochemical)

Some molecules with known C. alb Active (biochemical) results, for comparison:
Cc1cccc(-c2cc(Nc3cc(O)cc(O)c3C(=O)N3Cc4ccccc4C3)n(C)n2)c1; Yes
O=C(c1c(O)cc(O)cc1Nc1cc(-c2ccccc2)nn1-c1ccccc1)N1Cc2ccccc2C1; Yes
Cn1nc(-c2cccc(C(F)(F)F)c2)cc1Nc1cc(O)cc(O)c1C(=O)N1Cc2cccnc2C1; Yes
Cc1ccc(-c2cc(Nc3cc(O)cc(O)c3C(=O)N3Cc4ccccc4C3)n(C)n2)cc1; Yes
COc1cccc(-c2cc(Nc3cc(O)cc(O)c3C(=O)N3Cc4cccc(F)c4C3)n(C)n2)c1; Yes

// input: 3 molecules below; output: C. alb Active (biochemical) for each
1. Cc1ccccc1-c1cc(Nc2cc(O)cc(O)c2C(=O)N2Cc3ccccc3C2)n(C)n1
2. Cc1cccc(-c2cc(Nc3cc(O)cc(O)c3C(=O)N3Cc4cn[nH]c4C3)n(C)n2)c1
3. Cn1nc(-c2ccccc2C(F)(F)F)cc1Nc1cc(O)cc(O)c1C(=O)N1Cc2ccncc2C1

result:
1. Yes
2. Yes
3. Yes

* * *

# Tested on: Hsp90 (C. albicans whole cell lysate)
# assay_summary: biochemical
# Format: binding
What C. alb Selectivity (FS) was measured for each of the following?

Use the examples below as a reference point.
COc1ccccc1-c1cc(Nc2cc(O)cc(O)c2C(=O)N2CC[C@H](OC)C2)n(C)n1 [ACSM01351]; 4.6
Cn1nc(-c2ccccc2C(F)(F)F)cc1Nc1cc(O)cc(O)c1C(=O)N1Cc2ccncc2C1 [ACSM01491]; 3.9
COc1ccccc1-n1nc(C)c(Nc2cc(O)cc(O)c2C(=O)N2Cc3ccccc3C2)c1C [ACSM01493]; 1.2
COc1ccccc1-c1cc(Nc2cc(O)cc(O)c2C(=O)N2CC[C@H](NC(C)=O)C2)n(C)n1 [ACSM01348]; >5
Cc1cccc(-c2cc(Nc3cc(O)cc(O)c3C(=O)N3Cc4ccc(N5CCN(C)CC5)cc4C3)n(C)n2)c1 [ACSM01279]; 3.7
COc1cccc(-c2cc(Nc3cc(O)cc(O)c3C(=O)N3Cc4ccncc4C3)n(C)n2)c1 [ACSM01492]; 1.1

Quick batch: C. alb Selectivity (FS) for everything below.
1. CN1CCN(c2ccc3c(c2)CN(C(=O)c2c(O)cc(O)cc2Nc2cc(-c4cccc(C(F)(F)F)c4)nn2C)C3)CC1 [ACSM01487]
2. COc1ccc(Cn2nc(-c3ccccc3)cc2Nc2cc(O)cc(O)c2C(=O)N2Cc3ccncc3C2)cc1 [BUCMD00433]

result:
[2.3, 31]

I'm hoping you can list C. alb Selectivity (FS) for every compound here, please.
1. Cn1nc(-c2ccccc2)cc1Nc1cc(O)cc(O)c1C(=O)N1Cc2ccncc2C1 [BUCMD00467]
2. COc1ccccc1-c1cc(Nc2cc(O)cc(O)c2C(=O)N2CC[C@@H](OC)C2)n(C)n1 [ACSM01350]
3. O=C(O)Cn1nc(-c2ccccc2)cc1Nc1cc(O)cc(O)c1C(=O)N1Cc2ccccc2C1 [ACSM01476]
4. Cc1cccc(-n2nc(C)c(Nc3cc(O)cc(O)c3C(=O)N3Cc4ccccc4C3)c2C)c1 [ACSM01486]

result:
1: 0.4; 2: 9.2; 3: 1.4; 4: 0.7

For every item below, please supply its C. alb Selectivity (FS).
1. O=C(c1c(O)cc(O)cc1Nc1cc(-c2ccccc2)nn1-c1ccccc1)N1Cc2ccccc2C1 [ACSM01305]
2. Cc1nn(-c2cccc(C(F)(F)F)c2)c(C)c1Nc1cc(O)cc(O)c1C(=O)N1Cc2ccccc2C1 [ACSM01494]

result:
1. 0.9
2. 1.8

query: Entry COc1ccccc1-c1cc(Nc2cc(O)cc(O)c2C(=O)N2CC[C@H](NC(C)=O)C2)n(C)n1 [ACSM01349] : reported C. alb Selectivity (FS) = ?
result: 9.5
